Provide the recorded abundance fitness for the entries that follow.
B1: Chromodomain-helicase-DNA-binding protein 5, residues 338 to 390; numbered along this chain, Q8TDI0 (parent)
chain: YETDHQDYCEVCQQGGEIILCDTCPRAYHLVCLDPELEKAPEGKWSCPHCEKE

# Variants of: B1
# protocol_description: abundance fitness (aPCA) (normalised: wild type 0, dead -1); higher = more abundant; growth selection in yeast, the domain comes from the species named
# condition_notes: Homo sapiens
Please give the numeric answer without any surrounding text.

[in] Dear colleague, please send me the reported abundance fitness for L30C when you can.
[out] -0.096

[in] Answer with the recorded abundance fitness of I18R only.
[out] 0.021

[in] Entry T23D needs its abundance fitness filled in; supply it.
[out] -0.09

[in] Given the variant P48N , write its reported abundance fitness.
[out] 0.014

[in] Output abundance fitness of Y28E
[out] -0.668

[in] Query abundance fitness for C32A
[out] -1

[in] Identify abundance fitness associated with the variant L20R
[out] 0.266

[in] Provide one value: measured abundance fitness of Y28W
[out] -0.098

[in] Let me know recorded abundance fitness for A27H , thanks.
[out] -0.097

[in] Supply reported abundance fitness belonging to this variant: L30V
[out] -0.135

[in] Report abundance fitness, nothing else, for this variant: H29P
[out] -0.672

[in] Give reported abundance fitness value for E17H
[out] -0.435

[in] Answer with the recorded abundance fitness for the variant listed here: K52D
[out] -0.038

[in] Recall and state the measured abundance fitness for L30P .
[out] -0.414

[in] Quote abundance fitness reported for E36P please.
[out] 0.087

[in] Given P41C , respond with its abundance fitness.
[out] -0.379

[in] Annotate the variant E36D with its measured abundance fitness.
[out] 0.139

[in] Supply reported abundance fitness belonging to this variant: K44E
[out] 0.031

[in] Identify measured abundance fitness associated with H49Y
[out] -0.042

[in] Name the recorded abundance fitness of the item C50N in your answer.
[out] -0.498

[in] For the variant C47L , give its measured abundance fitness value.
[out] -0.855

[in] Note down abundance fitness recorded for L37G
[out] 0.032
